# tested_on: GST-Aq-NF-kB (Amphimedon queenslandica, UniProt A9Y5G7 2-389)
# Sequence: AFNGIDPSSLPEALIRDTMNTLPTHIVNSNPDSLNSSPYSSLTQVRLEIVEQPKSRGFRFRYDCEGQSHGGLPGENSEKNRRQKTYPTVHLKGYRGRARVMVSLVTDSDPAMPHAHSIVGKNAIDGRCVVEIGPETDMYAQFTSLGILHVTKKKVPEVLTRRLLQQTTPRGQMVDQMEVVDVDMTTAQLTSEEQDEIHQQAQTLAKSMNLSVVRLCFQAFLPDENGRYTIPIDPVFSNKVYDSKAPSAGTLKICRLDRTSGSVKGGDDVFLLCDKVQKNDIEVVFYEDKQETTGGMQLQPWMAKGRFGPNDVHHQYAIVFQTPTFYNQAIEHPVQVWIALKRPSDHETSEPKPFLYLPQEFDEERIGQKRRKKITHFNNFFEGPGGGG
# test_summary: protein-binding microarray (PBM); PBM: ~300 nM protein, 6 mM HEPES pH 7.8, 80 mM KCl, 0.5 mM EDTA, 0.5 mM EGTA, 6% glycerol, 35 ng/ul poly-dIdC, 1% milk, 1 h, room temperature; high values mean tight binding
# condition_context: dsDNA, one strand shown
binding signal reference
Be sure to follow the number with its unit.

Study these solved cases before continuing.
seq=CCGATTAACATCAGGGGTAACACTGATGTTAATCGGGTCTTGATTCGCTTGACGCTGCTG data_value="2.5 z-score"
seq=CCGATTAACATCACCCGTTTCCCTGATGTTAATCGGGTCTTGATTCGCTTGACGCTGCTG data_value="3.03 z-score"
seq=CCGATTAACATCAACCCCCCCCGTGATGTTAATCGGGTCTTGATTCGCTTGACGCTGCTG data_value="4.08 z-score"
seq=CCGATTAACATCACCGTTTTCCCTGATGTTAATCGGGTCTTGATTCGCTTGACGCTGCTG data_value="3.24 z-score"
seq=CCGATTAACATCAGGGAGATTTGTGATGTTAATCGGGTCTTGATTCGCTTGACGCTGCTG data_value="4.63 z-score"

For CCGATTAACATCACGGGTTTTCCTGATGTTAATCGGGTCTTGATTCGCTTGACGCTGCTG , write its binding signal.
4.99 z-score

For CCGATTAACATCAGTGGGAAAAATGATGTTAATCGGGTCTTGATTCGCTTGACGCTGCTG , write its binding signal.
2.62 z-score

For CCGATTAACATCAAAAAATCCCATGATGTTAATCGGGTCTTGATTCGCTTGACGCTGCTG , write its binding signal.
5.43 z-score

For CCGATTAACATCAGGATATTCCCTGATGTTAATCGGGTCTTGATTCGCTTGACGCTGCTG , write its binding signal.
6.63 z-score

---

# tested_on: GST-Co-NF-kB (Capsaspora owczarzaki, UniProt F1ARL5 200-546)
# Sequence: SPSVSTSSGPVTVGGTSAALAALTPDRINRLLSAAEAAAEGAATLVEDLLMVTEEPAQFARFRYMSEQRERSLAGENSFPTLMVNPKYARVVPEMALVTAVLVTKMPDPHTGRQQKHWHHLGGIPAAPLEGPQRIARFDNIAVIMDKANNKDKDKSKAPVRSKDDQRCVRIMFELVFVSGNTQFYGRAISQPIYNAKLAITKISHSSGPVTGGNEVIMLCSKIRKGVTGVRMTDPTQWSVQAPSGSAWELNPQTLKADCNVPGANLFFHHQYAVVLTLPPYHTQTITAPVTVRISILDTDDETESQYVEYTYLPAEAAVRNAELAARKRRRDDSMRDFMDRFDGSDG
# test_summary: protein-binding microarray (PBM); PBM: ~300 nM protein, 6 mM HEPES pH 7.8, 80 mM KCl, 0.5 mM EDTA, 0.5 mM EGTA, 6% glycerol, 35 ng/ul poly-dIdC, 1% milk, 1 h, room temperature; high values mean tight binding
# condition_context: dsDNA, one strand shown
Label -1 if binding signal falls below 4 z-score; label 1 in every other case.

Use these answered entries as a reference point.
seq=CCGATTAACATCACGAGTTTCCCTGATGTTAATCGGGTCTTGATTCGCTTGACGCTGCTG tested_on="GST-Co-NF-kB (Capsaspora owczarzaki, UniProt F1ARL5 200-546)" class_assignment=-1
seq=CCGATTAACATCACACATCCCCCTGATGTTAATCGGGTCTTGATTCGCTTGACGCTGCTG tested_on="GST-Co-NF-kB (Capsaspora owczarzaki, UniProt F1ARL5 200-546)" class_assignment=1
seq=CCGATTAACATCAAACTTCCCCGTGATGTTAATCGGGTCTTGATTCGCTTGACGCTGCTG tested_on="GST-Co-NF-kB (Capsaspora owczarzaki, UniProt F1ARL5 200-546)" class_assignment=1
seq=CCGATTAACATCAGGGGGGCACCTGATGTTAATCGGGTCTTGATTCGCTTGACGCTGCTG tested_on="GST-Co-NF-kB (Capsaspora owczarzaki, UniProt F1ARL5 200-546)" class_assignment=-1
seq=CCGATTAACATCAAGCGTTTCCCTGATGTTAATCGGGTCTTGATTCGCTTGACGCTGCTG tested_on="GST-Co-NF-kB (Capsaspora owczarzaki, UniProt F1ARL5 200-546)" class_assignment=-1

Confirm if binding signal reported for the sequence CCGATTAACATCAGGAACACCCCTGATGTTAATCGGGTCTTGATTCGCTTGACGCTGCTG is 4 z-score or above.
-1

Confirm if binding signal reported for the sequence CCGATTAACATCACATTTTCCCCTGATGTTAATCGGGTCTTGATTCGCTTGACGCTGCTG is 4 z-score or above.
1

Confirm if binding signal reported for the sequence CCGATTAACATCAGTGGGAAAAATGATGTTAATCGGGTCTTGATTCGCTTGACGCTGCTG is 4 z-score or above.
1

Confirm if binding signal reported for the sequence CCGATTAACATCACCAAATCCCCTGATGTTAATCGGGTCTTGATTCGCTTGACGCTGCTG is 4 z-score or above.
-1

Confirm if binding signal reported for the sequence CCGATTAACATCAGGGGGCAATATGATGTTAATCGGGTCTTGATTCGCTTGACGCTGCTG is 4 z-score or above.
1

---

# tested_on: GST-Ap-NF-kB RHD (Exaiptasia pallida (Aiptasia), UniProt A0A913YAJ5 2-422)
# Sequence: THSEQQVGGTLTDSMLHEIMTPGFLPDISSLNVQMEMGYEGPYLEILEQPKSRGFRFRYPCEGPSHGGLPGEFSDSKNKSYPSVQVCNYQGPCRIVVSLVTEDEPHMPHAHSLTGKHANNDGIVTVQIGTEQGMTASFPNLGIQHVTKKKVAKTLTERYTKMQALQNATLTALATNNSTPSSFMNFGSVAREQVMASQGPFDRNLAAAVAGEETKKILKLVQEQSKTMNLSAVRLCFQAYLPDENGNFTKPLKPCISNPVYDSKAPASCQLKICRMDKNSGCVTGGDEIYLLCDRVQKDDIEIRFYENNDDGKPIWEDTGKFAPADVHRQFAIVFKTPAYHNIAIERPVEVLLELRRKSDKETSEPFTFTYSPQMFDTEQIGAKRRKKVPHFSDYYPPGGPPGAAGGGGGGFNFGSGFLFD
# test_summary: protein-binding microarray (PBM); PBM: ~300 nM protein, 6 mM HEPES pH 7.8, 80 mM KCl, 0.5 mM EDTA, 0.5 mM EGTA, 6% glycerol, 35 ng/ul poly-dIdC, 1% milk, 1 h, room temperature; Ap Aiptasia and Nv Nematostella (sea anemones) / Co Capsaspora / Aq Amphimedon (sponge) / Dm Drosophila / Hu human; RHD is the Rel homology domain; high values mean tight binding
# condition_context: dsDNA, one strand shown
readout_type: binding signal
Be sure to follow the number with its unit.

Study these solved cases before continuing.
seq=CCGATTAACATCAGGGGGAGGAATGATGTTAATCGGGTCTTGATTCGCTTGACGCTGCTG tested_on="GST-Ap-NF-kB RHD (Exaiptasia pallida (Aiptasia), UniProt A0A913YAJ5 2-422)" data_value="5.2 z-score"
seq=CCGATTAACATCAAAAAACCCCCTGATGTTAATCGGGTCTTGATTCGCTTGACGCTGCTG tested_on="GST-Ap-NF-kB RHD (Exaiptasia pallida (Aiptasia), UniProt A0A913YAJ5 2-422)" data_value="12.1 z-score"

For CCGATTAACATCAGGGGGTTACCTGATGTTAATCGGGTCTTGATTCGCTTGACGCTGCTG , write its binding signal.
8.27 z-score

For CCGATTAACATCAACAAATTCCCTGATGTTAATCGGGTCTTGATTCGCTTGACGCTGCTG , write its binding signal.
3.83 z-score

For CCGATTAACATCAGGGGGAACCCTGATGTTAATCGGGTCTTGATTCGCTTGACGCTGCTG , write its binding signal.
8.64 z-score

For CCGATTAACATCAGGGGGGGCACTGATGTTAATCGGGTCTTGATTCGCTTGACGCTGCTG , write its binding signal.
4.77 z-score

For CCGATTAACATCAATCCACCCCCTGATGTTAATCGGGTCTTGATTCGCTTGACGCTGCTG , write its binding signal.
3.95 z-score

For CCGATTAACATCAAGTACGGGAATGATGTTAATCGGGTCTTGATTCGCTTGACGCTGCTG , write its binding signal.
1.11 z-score

For CCGATTAACATCATAAATTCCCATGATGTTAATCGGGTCTTGATTCGCTTGACGCTGCTG , write its binding signal.
2.62 z-score

For CCGATTAACATCAGGAATCCCCATGATGTTAATCGGGTCTTGATTCGCTTGACGCTGCTG , write its binding signal.
8.61 z-score

Data origin, for the record: paper PMC5700166
